- Experimental system: T1, recombinant IL-3Rα ectodomain (human, UniProt P26951 19-305)
- T1 construct: extracellular domain; also called recombinant IL-3Ra; biotinylated-IL-3Rα ectodomain
- T1 sequence (looked up): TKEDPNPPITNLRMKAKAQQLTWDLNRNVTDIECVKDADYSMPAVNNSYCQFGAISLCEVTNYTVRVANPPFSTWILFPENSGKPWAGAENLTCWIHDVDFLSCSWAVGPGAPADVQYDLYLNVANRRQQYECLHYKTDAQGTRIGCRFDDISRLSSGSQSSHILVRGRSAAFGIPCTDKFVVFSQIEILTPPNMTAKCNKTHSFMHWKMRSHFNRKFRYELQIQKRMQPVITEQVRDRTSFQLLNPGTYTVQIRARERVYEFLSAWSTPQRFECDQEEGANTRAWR
- Assay remarks: competition ELISA, coated mAb 7G3 + biotinylated IL-3Rα ectodomain
Observation type: IC50
Note: state the figure and append the unit.

* 57A07 (VHH, also called CD123#1; A0110057A07) VHH: EVQLVESGGGLVQAGGSLRLSCAASGSIFSGNVMGWYRRQAPGKEREWVAAIASGGSIYYRDSVKGRFTISRDNAKNTVYLQMNSLKPEDTAVYYCNSHPPTLPYWGLGTQVTVSS | 0.0012 µM

Query: IC50; subject: 55B04 (VHH) VHH: EVQLVESGGGLVQPGGSLRLSCAASGINFRFNSMGWWRRRAPGKEREWVAAITSGDITNYRDSVRGRFTISRDNVKNTVYLQMNTLKLEDTAVYYCNTFPPIADYWGLGTQVTVSS 0.055 µM
